# assay text: CCTE_Padilla_ZF_144hpf_TERATOSCORE: (Legacy) CCTE's 144 Hour Post-fertilization zebrafish Assay Teratoscore, Padilla Lab (AID 2283679)
Activity calls are given as the source filed them. The calls were made as follows: active = hit-call score of the fitted dose curve at least 0.9, where 1 is the maximum; inactive = score below 0.9.
Labels: class 1 for active, class 0 for inactive

| smiles notation | label class |
| --- | --- |
| COc1ccc2c(c1)c(CC(=O)O)c(C)n2C(=O)c1ccc(Cl)cc1 | class 1 |
| CC(=O)OC/C=C(\C)CCC=C(C)C | class 1 |
| O=C(OCCCCCOC(=O)c1ccccc1)c1ccccc1 | class 0 |
| COC(=O)c1ccc(O)cc1 | class 0 |
| CCOC(=O)C(C)(C)Oc1ccc(Cl)cc1 | class 1 |
| O=C(O)Cc1ccccc1Nc1c(Cl)cccc1Cl | class 1 |
| COCCOCCOC | class 0 |
| CNCc1cc(F)ccc1Oc1ccc(Cl)c(Cl)c1 | class 1 |
| Cc1oc(-c2ccccc2)nc1CCOc1cccc2c1ccn2CCC(=O)O | class 1 |
| CCOc1ccc2c(c1)C(C)=CC(C)(C)N2 | class 1 |
| FC(F)(F)C(F)(F)C(F)(F)C(F)(F)C(F)(F)C(F)(F)CCI | class 1 |
| Oc1ccc2c(c1)OC[C@@H](N1CCC(O)(c3ccc(F)cc3)CC1)[C@H]2O | class 1 |
| CN1CCN(Cc2cc(-c3ccc4[nH]c(=O)oc4c3)co2)[C@@H](c2ccc(F)cc2)C1 | class 1 |
| CN[C@H]1CC[C@@H](c2ccc(Cl)c(Cl)c2)c2ccc(S(N)(=O)=O)cc21 | class 1 |
| CC(C)(C)c1cc(O)c(C(C)(C)C)cc1O | class 1 |
| Cc1nc(C)nc(N2C[C@@H](C)N(c3ccnc([C@@H](C)O)n3)[C@@H](C)C2)n1 | class 1 |
| CCCCCCCCCCO | class 0 |
| Cc1c(C(=O)O)c(O)cc2c1C(=O)c1c(O)c([C@@H]3O[C@H](CO)[C@@H](O)[C@H](O)[C@H]3O)c(O)c(O)c1C2=O | class 0 |
| C=CCOC(=O)c1ccccc1C(=O)OCC=C | class 1 |
| CCc1c(C(=O)NN2CCCCC2)nn(-c2ccc(Cl)cc2Cl)c1-c1ccc(Br)cc1 | class 1 |

###

# Read-out: Interferon-gamma inducible Protein 10 (IP10), CXCL10 (gene 3627)
# assay text: BSK_BE3C_IP10: BioMAP Diversity Plus: BE3C Assay for Interferon-gamma inducible Protein 10 (IP10) Biomarker Activity (AID 2283034)
# condition notes: primary human bronchial epithelial cells; actives raise or lower the signal
Calls of active or inactive are those of the source. How the source made its calls: active means hit-call score of the fitted dose curve at least 0.9, where 1 is the maximum; inactive means score below 0.9.
Outcome codes: T (active), F (inactive)

| compound | label class |
| --- | --- |
| COc1cc(-c2nc(NC(=O)c3cc4cc(C)cc(C)c4n3CC(=O)O)sc2CCC2CCCCC2)c(OC)cc1Cl | T |
| NCC1(Cc2noc(=O)[nH]2)CCCCC1 | F |
| CCCCCCC(=O)OCC | F |
| Cc1cccc([N+](=O)[O-])c1C | F |
| CC=Cc1ccc(O)c(OC)c1 | F |
| Cc1ccc(N(C)C)cc1 | F |
| CCCCCCCCCCCC(=O)OC | F |
| CCOc1ccc2c(c1)C(C)=CC(C)(C)N2 | F |
| Cc1ccc(Cl)cc1 | F |
| CCNc1cccc(C)c1 | F |
| CCCCCCCCCCCCCCCC | F |
| CC(=O)OCCOCCOCCOC(C)=O | F |
| Cc1ccc(C)c(C)c1 | F |
| Cc1nc(C)nc(N2C[C@@H](C)N(c3ccnc([C@@H](C)O)n3)[C@@H](C)C2)n1 | F |
| CCCCCC(=O)O | F |
| NCCO | F |
| CCCCOC(=O)CCCCCCCCC(=O)OCCCC | F |
| COc1cc(C=O)ccc1O | F |
| O=[N+]([O-])C(CO)(CO)CO | F |
| CCCc1cc(=O)[nH]c(=S)[nH]1 | F |
| CC(=O)C(C)=CC1C(C)=CCCC1(C)C (stereo unspecified) | F |
| CCCCCCCC=O | F |
| Cc1cc(NC(=O)C(=O)O)cc(C)c1Oc1ccc(O)c2c1CCC2 | F |
| COCCOCCOC | F |
| Cc1ccc(C(C)C)c(O)c1 | F |
| CC(CO)OC(C)CO (stereo unspecified) (tested in a mixture with another compound) | F |
| CNCc1cc(F)ccc1Oc1ccc(Cl)c(Cl)c1 | F |
| CC1(C)CC(N=C=O)CC(C)(CN=C=O)C1 (stereo unspecified) | F |
| O=c1[nH]cc(F)c(=O)[nH]1 | F |
| CC1(C)NC(=O)NC1=O | F |
| Cc1oc(-c2ccccc2)nc1CCOc1cccc2c1ccn2CCC(=O)O | T |
